biological target: T1, human histones H3.3–H4 tetramer (human, UniProt P84243 1-136; P62805 1-103); assay: ITC; MicroCal PEAQ-ITC, 20°C, 20 mM Tris-HCl pH 7.5, 500 mM NaCl; 300 μM DNAJC9 HBD in the syringe, 30 μM (dimers) H3-H4 in the cell; one set of sites model; n = 3; settings: both partners purified
T1 construct: histone H3.3, human; histone H4, human; methods call it a tetramer; construct as in Huang et al., 2015; also called pre-assembled H3.3-H4; H3.3 WT-H4; source: bacteria, co-expressed and purified (as in Huang et al., 2015; Superdex 200 in 2 M NaCl); copies: 2 + 2
REPORTED_PROPERTY: pKd
Quick note: pKd means taking -log10 of the concentration in moles per liter.

What value of pKd has been recorded for this entry: DNAJC9 HBD (171–249), GST tag removed (domain or fragment, used in ITC; also called DNAJC9 HBD WT; source: E. coli BL21 (DE3)-RIL, purified (Glutathione Sepharose 4B, 3C protease, Superdex 200)) EVPSYNAFVKESKQKMNARKRRAQEEAKEAEMSRKELGLDEGVDSLKAAIQSRQKDRQKEMDNFLAQMEAKYCKSSKGG
7.26
